Listing of entries alongside the reported growth.
# Test system: SW-620 colon
# METHOD_NOTES: NCI-60 one-dose screen, 48 h (100 = growth as untreated, 0 = no growth, -100 = all killed)
# COND: 10 µM unless noted
The panel holds about 83,000 compounds, 20% with a hit somewhere; the sample as a whole holds those more often. Active and inactive are the calls of the source. How the source made its calls: active means growth percent below 10; inactive means the rest.

# MOLECULE, TARGET_ENTITY, growth
data = [
    ("O=c1ccn2nc3ccccc3c2[nH]1", "SW-620 colon", "114% (inactive)"),
    ("O=C(NC(CSSCC(NC(=O)c1ccccc1)C(=O)O)C(=O)O)c1ccccc1 (stereo unspecified)", "SW-620 colon", "103% (inactive)"),
    ("O=[N+]([O-])c1ccc(N2c3ccncc3Sc3ccncc32)cc1", "SW-620 colon", "103% (inactive)"),
    ("COc1ccccc1CNCCCN1C(=O)c2ccc3c4c(ccc(c24)C1=O)C(=O)N(CCCNCCCCN)C3=O", "SW-620 colon", "-0.0566% (active)"),
    ("O=C(O)C1CCC(=O)N1C(=O)OCc1ccccc1 (stereo unspecified)", "SW-620 colon", "101% (inactive)"),
    ("CC/C=C1/C(=O)C=C[C@@H]1C/C=C\\CCCC(=O)O", "SW-620 colon", "43.5% (inactive)"),
]
